assay-text: Selectivity ratio of CC50 for MDCK cells to EC50 for oseltamivir resistant-Influenza A virus A/TW/6663/09 (H1N1)
Type: toxicity
condition-parameters: dog, read-out: Ratio CC50/EC50
observable: selectivity ratio

>  <chemical-structure>
C=C(CC(=O)Nc1ccc(F)cc1F)C(=O)Nc1ccc(F)cc1F

>  <observable>
selectivity ratio

>  <readout-value>
18

$$$$

====

assay-text: Selectivity ratio of CC50 for MDCK cells to EC50 for oseltamivir resistant-Influenza A virus A/TW/7855/09 (H1N1)
Type: toxicity
condition-parameters: dog, read-out: Ratio CC50/EC50

>  <chemical-structure>
C=C(CC(=O)Nc1ccc(F)cc1F)C(=O)Nc1ccc(F)cc1F

>  <selectivity ratio>
33

$$$$
